Values were extracted from patent US10525100B2.

tested on: AML14 cells; format: cell-based, human
Ends that are not written are not given here.
measurementKind: pEC50
# pEC50: negative log10 of molar concentration; output just the value

pEC50 in this record for RQIKIWFQNRRMKWKKLEGECQGLEARNRELKERAESV [ST-3, reference compound] : 4.53
